Entry source: the kinase profiling compilation of Christmann-Franck et al. (2016)

system: KIT (human), P10721 [D816V]; assay: KINOMEscan competition binding; details: compound 10.0 µM
Sequence (P10721 whole entry D816V, looked up): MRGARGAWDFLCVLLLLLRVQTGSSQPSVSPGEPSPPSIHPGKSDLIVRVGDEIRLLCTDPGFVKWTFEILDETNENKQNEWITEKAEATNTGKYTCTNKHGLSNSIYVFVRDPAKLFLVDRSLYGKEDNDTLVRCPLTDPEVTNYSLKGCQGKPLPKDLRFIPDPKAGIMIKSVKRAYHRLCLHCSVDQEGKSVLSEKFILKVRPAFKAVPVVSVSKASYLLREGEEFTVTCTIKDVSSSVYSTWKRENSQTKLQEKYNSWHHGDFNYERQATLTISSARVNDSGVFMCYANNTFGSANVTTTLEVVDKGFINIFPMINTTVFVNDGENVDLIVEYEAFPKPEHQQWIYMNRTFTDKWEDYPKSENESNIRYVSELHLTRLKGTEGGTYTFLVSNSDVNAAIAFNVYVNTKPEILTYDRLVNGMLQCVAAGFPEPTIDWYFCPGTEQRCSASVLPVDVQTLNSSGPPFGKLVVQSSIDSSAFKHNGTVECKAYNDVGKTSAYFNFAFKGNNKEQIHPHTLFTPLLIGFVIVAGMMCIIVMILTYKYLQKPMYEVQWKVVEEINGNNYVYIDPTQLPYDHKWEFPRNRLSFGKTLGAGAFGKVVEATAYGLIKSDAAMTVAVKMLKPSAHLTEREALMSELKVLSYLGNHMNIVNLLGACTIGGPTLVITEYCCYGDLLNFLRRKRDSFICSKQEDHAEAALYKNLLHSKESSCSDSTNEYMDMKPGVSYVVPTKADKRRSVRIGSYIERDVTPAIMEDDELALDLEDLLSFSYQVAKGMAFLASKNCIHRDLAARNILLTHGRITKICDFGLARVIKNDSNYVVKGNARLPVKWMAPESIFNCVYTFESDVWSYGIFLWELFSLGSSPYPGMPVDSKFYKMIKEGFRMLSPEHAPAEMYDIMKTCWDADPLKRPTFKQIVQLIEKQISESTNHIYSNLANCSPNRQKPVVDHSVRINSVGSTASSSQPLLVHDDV
Measurement Kind: kinase still bound, per cent of control
Your answer should be a number followed by the unit of measure.

(Q) Give kinase still bound, per cent of control (KIT (human), P10721 [D816V]) of the following compound: `O=C(NC1CC1)c1cccc(-c2ccc3c(NC(=O)C4CC4)n[nH]c3c2)c1`
(A) 97%

(Q) Give kinase still bound, per cent of control (KIT (human), P10721 [D816V]) of the following compound: `CCCS(=O)(=O)Nc1ccc(F)c(C(=O)c2c[nH]c3ncc(Cl)cc23)c1F`
(A) 49%

(Q) Give kinase still bound, per cent of control (KIT (human), P10721 [D816V]) of the following compound: `Cc1ccc2nc(NCCN)c3ncc(C)n3c2c1`
(A) 88%

(Q) Give kinase still bound, per cent of control (KIT (human), P10721 [D816V]) of the following compound: `O=C1NC(=O)/C(=C/c2ccc3nccc(-c4ccncc4)c3c2)S1`
(A) 63%

(Q) Give kinase still bound, per cent of control (KIT (human), P10721 [D816V]) of the following compound: `COCC(=O)NC/C=C/c1ccc2ncnc(Nc3ccc(Oc4ccc(C)nc4)c(C)c3)c2c1`
(A) 89%

(Q) Give kinase still bound, per cent of control (KIT (human), P10721 [D816V]) of the following compound: `CC[C@@H]1C(=O)N(C)c2cnc(Nc3ccc(C(=O)NC4CCN(C)CC4)cc3OC)nc2N1C1CCCC1`
(A) 100%

(Q) Give kinase still bound, per cent of control (KIT (human), P10721 [D816V]) of the following compound: `N#C/C(=C1/Nc2ccccc2S1)c1ccnc(NCCc2cccnc2)n1`
(A) 50%

(Q) Give kinase still bound, per cent of control (KIT (human), P10721 [D816V]) of the following compound: COc1cc(C(=O)NC2CCN(C)CC2)ccc1Nc1ncc2c(n1)N(C1CCCC1)C(C)CC(=O)N2C (stereo not drawn)
(A) 100%

(Q) Give kinase still bound, per cent of control (KIT (human), P10721 [D816V]) of the following compound: `COc1cc2ncnc(-n3nc(-c4ccccn4)nc3N)c2cc1OC`
(A) 0.15%

(Q) Give kinase still bound, per cent of control (KIT (human), P10721 [D816V]) of the following compound: `COc1cc(C(=O)N2CCC(N3CCN(C)CC3)CC2)ccc1Nc1ncc2c(n1)N(C)c1ccccc1C(=O)N2C`
(A) 72%

(Q) Give kinase still bound, per cent of control (KIT (human), P10721 [D816V]) of the following compound: `O=C(NOC[C@H](O)CO)c1ccc(F)c(F)c1Nc1ccc(I)cc1F`
(A) 87%

(Q) Give kinase still bound, per cent of control (KIT (human), P10721 [D816V]) of the following compound: `C=CC(=O)Nc1cc(-n2c(=O)ccc3cnc4ccc(-c5cn[nH]c5)cc4c32)ccc1C`
(A) 5.8%

(Q) Give kinase still bound, per cent of control (KIT (human), P10721 [D816V]) of the following compound: `N#CCNC(=O)c1ccc(-c2ccnc(Nc3ccc(N4CCOCC4)cc3)n2)cc1`
(A) 16%

(Q) Give kinase still bound, per cent of control (KIT (human), P10721 [D816V]) of the following compound: `COc1cc(N2CCN(C)CC2)ccc1Nc1nc(N)c(C(=O)c2c(Cl)cccc2Cl)s1`
(A) 92%

(Q) Give kinase still bound, per cent of control (KIT (human), P10721 [D816V]) of the following compound: `Cn1c(=O)n(-c2ccc(C(C)(C)C#N)cc2)c2c3cc(-c4cnc5ccccc5c4)ccc3ncc21`
(A) 100%

(Q) Give kinase still bound, per cent of control (KIT (human), P10721 [D816V]) of the following compound: `C=CC(=O)Nc1cccc(Oc2nc(Nc3ccc(N4CCN(C)CC4)cc3OC)ncc2Cl)c1`
(A) 13%

(Q) Give kinase still bound, per cent of control (KIT (human), P10721 [D816V]) of the following compound: `CNC(=O)c1cc(Oc2ccc(NC(=O)Nc3ccc(Cl)c(C(F)(F)F)c3)cc2)ccn1`
(A) 3.6%

(Q) Give kinase still bound, per cent of control (KIT (human), P10721 [D816V]) of the following compound: `COc1cc(N2CCC(C(N)=O)CC2)ccc1Nc1nc(N)c(Cl)c(Nc2ccccc2S(=O)(=O)C(C)C)n1`
(A) 24%

(Q) Give kinase still bound, per cent of control (KIT (human), P10721 [D816V]) of the following compound: `O=C1Nc2ccc(I)cc2/C1=C/c1cc(Br)c(O)c(Br)c1`
(A) 79%

(Q) Give kinase still bound, per cent of control (KIT (human), P10721 [D816V]) of the following compound: `COc1cc2ncn(-c3cc(OCc4ccccc4C(F)(F)F)c(C(N)=O)s3)c2cc1OC`
(A) 1.4%

(Q) Give kinase still bound, per cent of control (KIT (human), P10721 [D816V]) of the following compound: `COc1cc(C(=O)NC2CCN(C)CC2)ccc1Nc1ncc2c(n1)N(C1CCCC1)CCC(=O)N2C(C)C`
(A) 100%

(Q) Give kinase still bound, per cent of control (KIT (human), P10721 [D816V]) of the following compound: `COc1ccc(N(C(=O)Oc2c(C)cccc2C)c2ccnc(Nc3ccc(N4CCN(C)CC4)cc3)n2)c(OC)c1`
(A) 3.4%

(Q) Give kinase still bound, per cent of control (KIT (human), P10721 [D816V]) of the following compound: `Cc1n[nH]c2ccc(-c3cncc(OC[C@@H](N)Cc4c[nH]c5ccccc45)c3)cc12`
(A) 1.1%

(Q) Give kinase still bound, per cent of control (KIT (human), P10721 [D816V]) of the following compound: CC1=C(C(=O)Nc2cc3cn[nH]c3cc2F)C(c2ccc(C(F)(F)F)cc2)CC(=O)N1 (stereo not drawn)
(A) 49%

(Q) Give kinase still bound, per cent of control (KIT (human), P10721 [D816V]) of the following compound: `CCOc1cc2ncc(C#N)c(Nc3ccc(OCc4ccccn4)c(Cl)c3)c2cc1NC(=O)/C=C/CN(C)C`
(A) 70%

(Q) Give kinase still bound, per cent of control (KIT (human), P10721 [D816V]) of the following compound: `Cc1cn(-c2cc(C(=O)Nc3ccc(C)c(NC(=O)c4ccno4)c3)cc(C(F)(F)F)c2)cn1`
(A) 27%

(Q) Give kinase still bound, per cent of control (KIT (human), P10721 [D816V]) of the following compound: `CS(=O)(=O)N1CCN(Cc2cc3nc(-c4cccc5[nH]ncc45)nc(N4CCOCC4)c3s2)CC1`
(A) 100%

(Q) Give kinase still bound, per cent of control (KIT (human), P10721 [D816V]) of the following compound: `COc1cc2c(Nc3ccc(NC(=O)c4ccccc4)cc3)ncnc2cc1OCCCN1CCOCC1`
(A) 42%

----------
Record form. Attribute: kinase still bound, per cent of control. Fill in for each entry.
target: IGF1R (human) (UniProt P08069); assay: KINOMEscan competition binding; conditions: compound 10.0 µM
Sequence (P08069 whole entry, looked up): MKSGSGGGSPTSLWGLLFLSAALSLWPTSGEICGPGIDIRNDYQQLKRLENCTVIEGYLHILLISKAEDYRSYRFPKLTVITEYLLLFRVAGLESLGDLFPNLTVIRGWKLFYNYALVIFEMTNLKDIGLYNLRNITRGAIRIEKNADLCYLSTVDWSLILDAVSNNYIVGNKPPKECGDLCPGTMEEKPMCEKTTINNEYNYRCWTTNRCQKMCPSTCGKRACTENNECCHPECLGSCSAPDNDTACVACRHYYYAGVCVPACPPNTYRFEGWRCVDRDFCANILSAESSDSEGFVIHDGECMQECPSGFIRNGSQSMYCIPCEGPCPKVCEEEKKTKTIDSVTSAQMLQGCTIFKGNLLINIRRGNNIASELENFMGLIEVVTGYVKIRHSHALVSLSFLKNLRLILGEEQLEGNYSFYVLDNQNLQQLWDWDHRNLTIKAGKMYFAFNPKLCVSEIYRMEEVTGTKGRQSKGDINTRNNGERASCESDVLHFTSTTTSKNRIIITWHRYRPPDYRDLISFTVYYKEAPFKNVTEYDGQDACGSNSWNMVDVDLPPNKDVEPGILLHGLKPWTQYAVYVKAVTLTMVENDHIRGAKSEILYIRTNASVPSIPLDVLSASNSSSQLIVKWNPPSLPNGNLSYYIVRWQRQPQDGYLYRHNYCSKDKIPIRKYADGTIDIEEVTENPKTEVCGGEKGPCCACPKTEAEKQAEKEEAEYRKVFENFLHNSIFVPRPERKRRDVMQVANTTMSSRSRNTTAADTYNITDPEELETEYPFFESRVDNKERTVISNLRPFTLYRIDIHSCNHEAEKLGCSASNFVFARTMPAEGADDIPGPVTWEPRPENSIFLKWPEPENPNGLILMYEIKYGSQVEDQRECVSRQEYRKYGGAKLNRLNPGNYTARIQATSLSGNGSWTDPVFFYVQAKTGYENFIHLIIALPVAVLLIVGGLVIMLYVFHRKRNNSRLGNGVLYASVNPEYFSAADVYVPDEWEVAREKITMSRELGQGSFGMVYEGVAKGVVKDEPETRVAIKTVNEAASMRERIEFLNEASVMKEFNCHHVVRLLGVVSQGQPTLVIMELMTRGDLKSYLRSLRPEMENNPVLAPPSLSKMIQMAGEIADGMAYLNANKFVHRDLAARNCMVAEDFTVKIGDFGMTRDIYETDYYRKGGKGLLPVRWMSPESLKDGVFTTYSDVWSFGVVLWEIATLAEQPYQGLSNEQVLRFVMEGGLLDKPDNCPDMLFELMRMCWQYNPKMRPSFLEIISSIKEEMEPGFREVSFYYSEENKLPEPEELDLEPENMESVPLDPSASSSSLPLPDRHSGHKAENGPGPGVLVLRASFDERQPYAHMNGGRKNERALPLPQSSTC
Form entry: value (%) — number only.

(Q) Give kinase still bound, per cent of control (IGF1R (human) (UniProt P08069)) of the following molecule: `CC[C@@H]1C(=O)N(C)c2cnc(Nc3ccc(C(=O)NC4CCN(C)CC4)cc3OC)nc2N1C1CCCC1`
(A) 100

(Q) Give kinase still bound, per cent of control (IGF1R (human) (UniProt P08069)) of the following molecule: `C[C@@H](Oc1cc(-n2cnc3ccc(CN4CCN(C)CC4)cc32)sc1C(N)=O)c1ccccc1C(F)(F)F`
(A) 100

(Q) Give kinase still bound, per cent of control (IGF1R (human) (UniProt P08069)) of the following molecule: `Cc1ccc(NC(=O)c2cccc(C(C)(C)C#N)c2)cc1Nc1ccc2ncn(C)c(=O)c2c1`
(A) 95

(Q) Give kinase still bound, per cent of control (IGF1R (human) (UniProt P08069)) of the following molecule: `OCCCNc1cc(-c2ccnc(Nc3cccc(Cl)c3)n2)ccn1`
(A) 100

(Q) Give kinase still bound, per cent of control (IGF1R (human) (UniProt P08069)) of the following molecule: `COc1cc(C(=O)NC2CCN(C)CC2)ccc1Nc1ncc2c(n1)N(C1CCCC1)CCC(=O)N2C(C)C`
(A) 100

(Q) Give kinase still bound, per cent of control (IGF1R (human) (UniProt P08069)) of the following molecule: `Cc1ccc(C(=O)Nc2cccc(C(F)(F)F)c2)cc1Nc1cncc(C(N)=O)c1`
(A) 100

(Q) Give kinase still bound, per cent of control (IGF1R (human) (UniProt P08069)) of the following molecule: `C=CC(=O)Nc1cccc(Nc2nc(N[C@H]3CC[C@H](N(C)C)CC3)nc3c2ncn3C(C)C)c1`
(A) 87

(Q) Give kinase still bound, per cent of control (IGF1R (human) (UniProt P08069)) of the following molecule: `N#Cc1c(NC(=O)c2cccc3ccccc23)sc2c1CCCC2`
(A) 76

(Q) Give kinase still bound, per cent of control (IGF1R (human) (UniProt P08069)) of the following molecule: `CCC(=O)N1CCN(c2ccc(-n3c(=O)ccc4cnc5ccc(-c6cnc7ccccc7c6)cc5c43)cc2C(F)(F)F)CC1`
(A) 94

(Q) Give kinase still bound, per cent of control (IGF1R (human) (UniProt P08069)) of the following molecule: `CN(C)C/C=C/C(=O)Nc1cccc(Nc2ncc3c(n2)N(C)c2ccccc2C(=O)N3C)c1`
(A) 100
